- Method: Equilibrium solubility in simulated intestinal fluid, dual level DoE, fasted arm
- Assay type: physicochemical
- Condition Notes: fasted, current study (Figure 3)
Endpoint: statistical significance of DoE factor lecithin on equilibrium solubility

Compound	Value Reported
O=C1NC(=O)C(c2ccccc2)(c2ccccc2)N1 [phenytoin]	NS ^e ^g
COc1ccccc1OCCNCC(O)COc1cccc2[nH]c3ccccc3c12 (stereo not shown) [carvedilol]	NS ^e ^g
CN1CC(=O)N2[C@H](c3ccc4c(c3)OCO4)c3[nH]c4ccccc4c3C[C@@H]2C1=O [tadalafil]	NS ^e ^g
COc1ccc2c(c1)c(CC(=O)O)c(C)n2C(=O)c1ccc(Cl)cc1 [indomethacin]	NS ^e

* * *

- Method: Equilibrium solubility in simulated intestinal fluid, dual level DoE, fasted arm
- Type: physicochemical
- Condition Notes: fasted, current study (Figure 3)
Endpoint: statistical significance of DoE factor lecithin on equilibrium solubility

Molecule	Value Reported
CC(C)(Sc1cc(C(C)(C)C)c(O)c(C(C)(C)C)c1)Sc1cc(C(C)(C)C)c(O)c(C(C)(C)C)c1	NS ^e
CCOC(=O)C1=C(C)NC(C)=C(C(=O)OC)C1c1cccc(Cl)c1Cl (stereo not shown)	S ^d

* * *

- Method: Equilibrium solubility in simulated intestinal fluid, dual level DoE, fasted arm
- Format: physicochemical
- Condition Notes: fasted, current study (Figure 3)
Endpoint: statistical significance of DoE factor cholesterol on equilibrium solubility

The following compounds have reported results that may help.
Compound	Value Reported
CCOC(=O)C1=C(C)NC(C)=C(C(=O)OC)C1c1cccc(Cl)c1Cl (centres unmarked)	NS ^e
COc1ccc2c(c1)c(CC(=O)O)c(C)n2C(=O)c1ccc(Cl)cc1	NS ^e
CN1CC(=O)N2[C@H](c3ccc4c(c3)OCO4)c3[nH]c4ccccc4c3C[C@@H]2C1=O	NS ^e
O=C1NC(=O)C(c2ccccc2)(c2ccccc2)N1	S ^d
C[C@@H](O[C@H]1OCCN(Cc2n[nH]c(=O)[nH]2)[C@H]1c1ccc(F)cc1)c1cc(C(F)(F)F)cc(C(F)(F)F)c1 [aprepitant]	NS ^e
COc1ccccc1OCCNCC(O)COc1cccc2[nH]c3ccccc3c12 (centres unmarked)	NS ^e
COc1cc(C(=O)NS(=O)(=O)c2ccccc2C)ccc1Cc1cn(C)c2ccc(NC(=O)OC3CCCC3)cc12	S ^d

Proceeding to the next compound to report its statistical significance of DoE factor cholesterol on equilibrium solubility.
For the compound shown here, CC(C)(Sc1cc(C(C)(C)C)c(O)c(C(C)(C)C)c1)Sc1cc(C(C)(C)C)c(O)c(C(C)(C)C)c1 , give the reported statistical significance of DoE factor cholesterol on equilibrium solubility.
NS ^e

* * *

- Method: Equilibrium solubility in simulated intestinal fluid, dual level DoE, fasted arm
- Assay type: physicochemical
- Condition Notes: fasted, current study (Figure 3)
Endpoint: statistical significance of DoE factor BS:PL on equilibrium solubility

Known statistical significance of DoE factor BS:PL on equilibrium solubility results, listed for orientation:
Compound	Value Reported
CCOC(=O)C1=C(C)NC(C)=C(C(=O)OC)C1c1cccc(Cl)c1Cl (centres unmarked)	NS ^e
COc1ccccc1OCCNCC(O)COc1cccc2[nH]c3ccccc3c12 (centres unmarked)	NS ^e
O=C1NC(=O)C(c2ccccc2)(c2ccccc2)N1	S ^d
COc1cc(C(=O)NS(=O)(=O)c2ccccc2C)ccc1Cc1cn(C)c2ccc(NC(=O)OC3CCCC3)cc12	NS ^e
CN1CC(=O)N2[C@H](c3ccc4c(c3)OCO4)c3[nH]c4ccccc4c3C[C@@H]2C1=O	NS ^e
C[C@@H](O[C@H]1OCCN(Cc2n[nH]c(=O)[nH]2)[C@H]1c1ccc(F)cc1)c1cc(C(F)(F)F)cc(C(F)(F)F)c1 [aprepitant]	NS ^e
COc1ccc2c(c1)c(CC(=O)O)c(C)n2C(=O)c1ccc(Cl)cc1	NS ^e

Here is the next item to consider.
Bench note: what statistical significance of DoE factor BS:PL on equilibrium solubility did CC(C)(Sc1cc(C(C)(C)C)c(O)c(C(C)(C)C)c1)Sc1cc(C(C)(C)C)c(O)c(C(C)(C)C)c1 show?
S ^d
